measurementTarget: AMPK beta 1 (Homo sapiens, UniProt Q13131+Q9Y478)
Construct: in-cell-ELISA for phospho-ACC (Acetyl-CoA carboxylase 1) in HepG2 cells (liver); endogenous in cells; host or cells: HepG2 (assignment to the beta 1 column inferred)
Sequence (Q9Y478 2-270 limits assumed): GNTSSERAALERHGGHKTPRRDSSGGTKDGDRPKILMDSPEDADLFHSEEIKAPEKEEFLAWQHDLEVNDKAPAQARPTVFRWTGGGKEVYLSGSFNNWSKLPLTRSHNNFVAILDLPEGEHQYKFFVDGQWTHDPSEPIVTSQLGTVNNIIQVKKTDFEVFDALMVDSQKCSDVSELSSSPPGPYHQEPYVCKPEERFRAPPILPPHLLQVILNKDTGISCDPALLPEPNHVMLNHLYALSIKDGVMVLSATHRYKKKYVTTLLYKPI
Sequence (Q13131 whole entry): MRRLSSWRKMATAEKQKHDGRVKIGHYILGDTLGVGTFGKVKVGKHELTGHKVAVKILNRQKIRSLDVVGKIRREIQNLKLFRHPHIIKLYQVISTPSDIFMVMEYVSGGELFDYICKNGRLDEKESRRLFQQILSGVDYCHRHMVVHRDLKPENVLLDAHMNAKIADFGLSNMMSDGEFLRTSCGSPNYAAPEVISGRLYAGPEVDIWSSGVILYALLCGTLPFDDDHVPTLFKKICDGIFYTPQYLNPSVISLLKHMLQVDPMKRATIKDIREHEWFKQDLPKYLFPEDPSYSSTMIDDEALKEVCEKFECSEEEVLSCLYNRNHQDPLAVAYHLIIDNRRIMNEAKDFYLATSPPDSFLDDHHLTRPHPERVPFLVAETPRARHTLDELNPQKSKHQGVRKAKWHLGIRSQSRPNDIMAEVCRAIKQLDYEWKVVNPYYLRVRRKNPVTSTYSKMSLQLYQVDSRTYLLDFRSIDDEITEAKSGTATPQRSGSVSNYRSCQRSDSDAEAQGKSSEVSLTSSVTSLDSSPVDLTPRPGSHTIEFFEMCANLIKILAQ
Sequence (P54619 whole entry partner): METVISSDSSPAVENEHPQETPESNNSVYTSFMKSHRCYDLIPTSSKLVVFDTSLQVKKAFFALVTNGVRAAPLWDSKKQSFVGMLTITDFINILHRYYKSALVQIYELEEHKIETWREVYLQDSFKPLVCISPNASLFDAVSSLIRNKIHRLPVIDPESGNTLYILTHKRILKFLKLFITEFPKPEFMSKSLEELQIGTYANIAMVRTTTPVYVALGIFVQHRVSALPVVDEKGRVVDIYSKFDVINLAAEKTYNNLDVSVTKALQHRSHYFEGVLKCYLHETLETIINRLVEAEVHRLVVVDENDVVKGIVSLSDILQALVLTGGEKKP
experimentDescription: in-cell-ELISA for phospho-ACC: activation of AMPK, beta 1 (HepG2 cells / C2C12 myotubes)
Assay type: cell-based
conditionSet: 10 μM, 2 h, percentage activation over vehicle control
# Percentage activation of beta 1 at given concentration listing for each entry below
I'd appreciate it if you included the unit after the number.

[
  {
    "molecule": "O=C(O)Cc1cccc(C2CC23C(=O)Nc2cc(Cl)c(-c4ccc(-c5ccccc5O)cn4)cc23)c1 (centres unmarked) [Example 16]",
    "recordedMeasurement": "23% at 10 μM"
  }
]

In: State the measured Percentage activation of beta 1 at given concentration (AMPK beta 1 (Homo sapiens, UniProt Q13131+Q9Y478)) of O=C(O)Cc1cccc(C2CC23C(=O)Nc2cc(Cl)c(-c4ccc(-c5ccccc5O)cn4)cc23)c1 (centres unmarked) [Example 17]
Out: 88% at 10 μM

In: State the measured Percentage activation of beta 1 at given concentration (AMPK beta 1 (Homo sapiens, UniProt Q13131+Q9Y478)) of Cc1ccc(C2CC23C(=O)Nc2cc(Cl)c(-c4ccc(C5(CO)CC5)cc4)cc23)cc1C(=O)O (centres unmarked) [Example 45]
Out: 80% at 10 μM

In: State the measured Percentage activation of beta 1 at given concentration (AMPK beta 1 (Homo sapiens, UniProt Q13131+Q9Y478)) of O=C(O)Cc1cccc(C2CC23C(=O)Nc2cc(Cl)c(-c4ccc(-c5ccccc5O)cn4)cc23)c1 (centres unmarked) [Example 18]
Out: 168% at 10 μM

In: State the measured Percentage activation of beta 1 at given concentration (AMPK beta 1 (Homo sapiens, UniProt Q13131+Q9Y478)) of Cc1ccc(C2CC23C(=O)Nc2cc(Cl)c(-c4ccc(C5(CO)CC5)cc4)cc23)cc1C(=O)O (centres unmarked) [Example 44]
Out: 11% at 10 μM
